Test system: SNB-19 CNS
Experiment: NCI tumour cell line growth inhibition, 48 h
ATTRIBUTE_MEASURED: TGI

Prompt: TGI of CC(=O)c1ccc2c(c1)N(CCCN(C)C)c1ccccc1S2 on SNB-19 CNS?
Completion: 43.2 µM

Prompt: Find TGI (SNB-19 CNS) for the entry Cc1c(-c2ccc(O)c(O)c2)oc(=O)c2c(O)cccc12
Completion: 36.1 µM

Prompt: Checklist item: TGI tested on SNB-19 CNS, entry Cc1ccc(C(=O)N=Nc2c(O)[nH]c3ccc(Cl)cc23)cc1 , value?
Completion: > 50 µM

Prompt: What TGI appears in the records for this molecule with SNB-19 CNS? Nc1c2c(nc3ccccc13)CCCc1ccccc1-2
Completion: 52.9 µM

Prompt: Given the entry CN1C(=O)C(=CN(C)c2ccccc2)C(=O)N(C)C1=O , what TGI was observed with SNB-19 CNS?
Completion: > 100 µM

Prompt: Form entry - test system: SNB-19 CNS; read-out: TGI; molecule: C[N+](C)(C)C(C1=CCCC1=O)c1ccccc1 (stereo unspecified)
Completion: > 100 µM

Prompt: Checklist item: TGI tested on SNB-19 CNS, entry O=C(Nc1cccc(-n2cc(-c3ccncc3)c(-c3ccc(O)c(Cl)c3)n2)c1)c1ccc(Cl)c(Cl)c1 , value?
Completion: > 100 µM

Prompt: For SNB-19 CNS, provide TGI of CC(C)(C)OC(=O)NCCCCCCCCCCn1c2c(c3ccccc3c1=O)C(=O)c1ccccc1-2 please.
Completion: > 100 µM

Prompt: Look up TGI with SNB-19 CNS for this molecule: Nc1nc(-c2cc(-c3cccc4ccccc34)nc(N)n2)cc(-c2cccc3ccccc23)n1
Completion: > 100 µM

Prompt: Lab note: need TGI with SNB-19 CNS for entry CCN(CC)CCC(=O)/C=C/c1ccc(C)cc1 , please look it up.
Completion: 37.5 µM

Prompt: I'm curious: which TGI was measured for COc1ccccc1/C=C/c1nc2ccccc2o1 tested on SNB-19 CNS?
Completion: > 10 µM

---

Tested on: NCI-H226 lung
Experiment: NCI tumour cell line growth inhibition, 48 h
Kindly state TGI for each of the entries shown.

Prompt: // returns reported TGI for input CN(C)Cc1cc(C(=O)/C=C/c2ccc(F)cc2)cc(CN(C)C)c1O
Completion: > 100 µM

Prompt: Data request, read-out TGI, for CCN(CC)c1ccc(/C=C/C=C(/C#N)C(N)=S)cc1
Completion: 30.9 µM

Prompt: Please give the measured TGI for this compound: CC(C)(O)CCc1ccc(O)c2c(=O)c3c(O)c4c(cc3oc12)O[C@H]1OC=C[C@@]41O
Completion: 0.162 µM

Prompt: What value of measured TGI is listed for CCOP(C)(=O)/C(Cc1ccc(OC)c(OC)c1)=N\O (stereo unspecified) ?
Completion: > 100 µM

Prompt: Field request: TGI | item: COc1cccc(C=C2N=C(C)N(n3c(-c4ccccc4)nc4ccccc4c3=O)C2=O)c1
Completion: > 100 µM

Prompt: Query (compound): Cc1cc(C)c2c(=O)cc(-c3ccc4ccccc4c3)[nH]c2n1 ; field requested: TGI
Completion: > 100 µM

Prompt: Find the recorded TGI belonging to CNc1nc2c(C)ccc3[nH]c(N(C)C)nc3c-2n1 and report it.
Completion: > 100 µM

Prompt: What does the data say about its TGI? Entry: COC(=O)/C(=C\c1c(-c2ccccc2)[nH]c2ccccc12)S(C)(=O)=O
Completion: 64.5 µM

Prompt: GET /values?readout=TGI&item= COC(=O)C(=O)C(CC(=O)Nc1cccc(C(F)(F)F)c1)C(=O)OC (stereo unspecified)
Completion: > 100 µM

Prompt: Field request: TGI | item: Cc1nc2ccccc2c(=O)n1/N=C/c1ccc(N(C)C)cc1
Completion: > 100 µM

Prompt: Any idea what TGI was measured for CN=C(NC)N(C)c1nc(=[N+](C)C)ss1 ?
Completion: > 100 µM

Prompt: Reported TGI for NC(=O)CNC(=O)[C@@H]1C[C@@H](OCCC(=O)O)CN1C(=O)OCc1ccccc1 : what is it?
Completion: > 100 µM

Prompt: Look up TGI for this compound: O=C(CCc1ccc(O)cc1)NCCCNC(=O)CCc1ccc(O)cc1
Completion: > 100 µM

Prompt: Would you kindly share the measured TGI for Cc1cc(NS(=O)(=O)c2ccc(NC(=O)COC(=O)c3cccc4c(=O)c5ccccc5[nH]c34)cc2)no1 ?
Completion: > 100 µM

Prompt: If you can, please state the reported TGI value of Cc1cc2c(C(C)C)c(O)c(O)c(C=Nc3ccccc3)c2c(O)c1-c1c(C)cc2c(C(C)C)c(O)c(O)c(C=Nc3ccccc3)c2c1O .
Completion: > 100 µM

Prompt: Requested read-out: TGI. Entry: O=C1CCCC2=C1CC1=C(CCCC1=O)N2c1cccc([N+](=O)[O-])c1
Completion: > 100 µM

Prompt: Would you mind telling me what TGI value was observed for CCN(CC)CCC(=O)/C=C/c1ccc(C)cc1 ?
Completion: 31.9 µM

Prompt: Which TGI reading was recorded for the compound CCN(CC)CCNC(=O)c1nn(-c2ccc(Cl)cc2)c2c1CCc1cc(OC)ccc1-2 ?
Completion: 24.2 µM

Prompt: Look at this compound and give its reported TGI. CC(=O)/C(=C\c1c(-c2ccccc2)[nH]c2ccccc12)S(=O)(=O)c1ccccc1
Completion: 5.21 µM

Prompt: For the compound shown here, COc1ccc(/C(=N/O)c2cc(OC)c(OC)c(OC)c2)c(OC)c1N , give the reported TGI.
Completion: > 100 µM

Prompt: Item under review: C=CCN1C[C@@H](C)N([C@@H](c2ccc(C(=O)N(CC)CC)cc2)c2cccc(OC)c2)C[C@@H]1C . Reported TGI?
Completion: > 100 µM
